Hey, just so you know, these numbers are from PubChem BioAssay (NCI).

- Test system: A549 NSCLC
- Assay: NCI tumour cell line growth inhibition, 48 h
Property Name: TGI

Sample records with TGI:
{"Molecule": "O=c1oc2cc(O)ccc2c2oc3cc(O)ccc3c12", "TGI": "125 µM"}
{"Molecule": "CC(C)=NOC(=O)OC[C@H]1O[C@@H](n2cnc3c(N)ncnc32)C(O)C1O (stereo not given in full)", "TGI": "> 100 µM"}

Input line: Form field: TGI recorded for `O=C(O)/C=C/c1ccc(OS(=O)(=O)O)cc1` with A549 NSCLC (enter value)
Output line: > 100 µM

Input line: Find TGI (A549 NSCLC) for the entry `CCN(CC)CCn1c(=O)c2cc(OC)c(OC)cc2c2ccc3cc4c(cc3c21)OCO4`
Output line: 8.53 µM

Input line: # value lookup — system A549 NSCLC, readout TGI, item `CC(=O)NCc1c(C(N)=O)ncn1Cc1ccccc1`
Output line: > 100 µM

Input line: Test system A549 NSCLC; read-out TGI; what value for `O=C(Nc1ccccc1Cl)c1ccc(NC2=C(Cl)C(=O)N(C3CCCCC3)C2=O)cc1` ?
Output line: 32.9 µM

Input line: Short answer please: TGI, A549 NSCLC, entry CC(=O)OC1=C2CC[C@@H]3C(CC[C@@]4(C)C3CC[C@@H]4OC(C)=O)[C@@]2(C)CC(C#N)C1=O (stereo not given in full)
Output line: > 100 µM

Input line: Could you share what TGI was measured for `O=C1/C(=C/c2ccccc2)CCc2ccc([N+](=O)[O-])cc21` , tested on A549 NSCLC?
Output line: > 100 µM

Input line: Reported TGI for A549 NSCLC, given `C=CCc1cccc2cc(C(=O)Nc3ccc(C)cc3)c(=N)oc12` ?
Output line: > 100 µM

Input line: Return TGI measured with A549 NSCLC given this molecule: `CO/N=C(/C(=O)Nc1c[n+](CC(=O)[O-])cs1)c1csc(N)n1`
Output line: > 100 µM

###

- System: SF-268 CNS
- Assay: NCI tumour cell line growth inhibition, 48 h
Property Name: TGI (µM)
Record the value in µM, omitting the unit from your answer.

Input line: API: value(readout= TGI, system= SF-268 CNS, query= `COc1cc(NS(C)(=O)=O)ccc1Cc1c2ccccc2nc2ccccc12` )
Output line: 6.03

Input line: Record `COc1cc2c(c(OC)c1OC)-c1c(c3ccc([N+](=O)[O-])cc3c(=O)n1CCCBr)C2=O` : what is its TGI with SF-268 CNS?
Output line: 45.8

###

- Tested on: A498 renal
- Assay: NCI tumour cell line growth inhibition, 48 h
Property Name: TGI

{"Compound": "CCOC(=O)CNC(=O)OCc1ccccc1", "Result": "> 100 µM"}
{"Compound": "N#CC1(N2CCCC2)CCC2(CC1)OCCO2", "Result": "> 100 µM"}
{"Compound": "COC(=O)C1=C(C(=O)ON)[C@@H]2C=C[C@@]1([C@@H](Cc1ccccc1)Nc1ccccc1)O2", "Result": "24.8 µM"}
{"Compound": "CN(/N=C/c1ccc(Cl)c(Cl)c1)C1=NCCCCN1", "Result": "49.2 µM"}
{"Compound": "CC(=O)NCc1c(C(N)=O)ncn1Cc1ccccc1", "Result": "> 100 µM"}

Input line: I have this compound here, O=C1CCC2(CC1CCS(=O)c1ccccc1)OCCO2 (stereo unspecified) , and I need its recorded TGI.
Output line: > 100 µM

Input line: Given the entry CN1c2c(nc(N)[nH]c2=O)NCC1CCNc1ccc(C(=O)NC(CCC(=O)O)C(=O)O)cc1 (stereo unspecified) , report its measured TGI.
Output line: 2820 µM

Input line: Entry CCN(CCO)CCCC(C)Nc1ccnc2cc(Cl)ccc12 (stereo unspecified) : reported TGI = ?
Output line: > 100 µM

###

- Test system: HOP-62 NSCLC
- Assay: NCI tumour cell line growth inhibition, 48 h; in the data active means GI50 below about 0.43 µM; inactive means the rest
Entry note: the call must match one of active, inactive

Some solved cases for reference:
{"Compound": "COc1cc2c3c(n(CCCn4cncn4)c(=O)c2cc1OC)-c1cc2c(cc1C3=O)OCO2", "Group": "active"}
{"Compound": "O=C(c1ccc2ccccc2c1)c1c(C(F)(F)F)n([O-])c2cc(C(F)(F)F)ccc2[n+]1=O", "Group": "inactive"}
{"Compound": "COc1ccc(C2=NN(C(C)=O)C(c3ccc(Oc4ccnc5cc(Cl)ccc45)c(OC)c3)C2)cc1 (stereo not given)", "Group": "inactive"}
{"Compound": "COC(=O)C1=C(C(=O)ON)[C@@H]2C=C[C@@]1([C@@H](Cc1ccccc1)Nc1ccccc1)O2", "Group": "inactive"}

// switching to the query compound
Input line: Lab log entry: FC(F)(F)c1cc(NC(=S)N2c3ccccc3-n3cccc3C2c2cccnc2)cc(C(F)(F)F)c1 (stereo not given) — outcome as called in the assay?
Output line: inactive

###

- System: HOP-18 NSCLC
- Assay: NCI tumour cell line growth inhibition, 48 h
Property Name: TGI

Reference set, count: 2
{"Compound": "CN1N=C2c3ccccc3OC(c3ccccc3)[C@H]2C1c1ccccc1 (stereo partly specified)", "TGI": "> 100 µM"}
{"Compound": "O=c1oc2cc(O)ccc2c2oc3cc(O)ccc3c12", "TGI": "> 125 µM"}

Input line: Entry CC(C)(C)OC(=O)N1CC(C)(C)N2C(=O)C3(CCCO3)C12 (stereo unspecified) has what TGI?
Output line: > 100 µM

###

- System: MALME-3M melanoma
- Assay: NCI tumour cell line growth inhibition, 48 h
# TGI per record follows

Some molecules with known TGI results, for comparison:
{"Molecule": "CN1N=C2c3ccccc3OC(c3ccccc3)[C@H]2C1c1ccccc1 (stereo partly specified)", "Property Name": "TGI", "Result": "78.3 µM"}
{"Molecule": "c1ccc(SCCc2ccncc2)cc1", "Property Name": "TGI", "Result": "> 100 µM"}
{"Molecule": "CCc1cccc(C(C)CC)c1NC(=O)C(=O)Cc1nc2ccccc2o1 (stereo unspecified)", "Property Name": "TGI", "Result": "> 50 µM"}

Input line: Would you mind telling me what TGI value was observed for `CC(=O)Nc1ccc(OC(C)=O)cc1` ?
Output line: 24.5 µM

Input line: Need TGI, item `CC1=C2[C@@H](CC1)[C@]1(C)O[C@@](C(C)C)(C[C@H]1OC(=O)CO)[C@H]2OC(=O)CCCc1ccccc1`
Output line: 19.8 µM

Input line: Find the recorded TGI belonging to `CC(=O)Nn1cnc(C(=N)C#N)c1N` and report it.
Output line: > 100 µM

Input line: Any idea what its TGI is? The molecule is `CN(/N=C/c1ccccc1O)c1ccc2ccccc2n1`
Output line: 47.8 µM

Input line: Recorded TGI of CCOC(=O)C(NC(=O)c1ccccc1)(c1ccc(S(=O)(=O)Nc2onc(C)c2C)cc1)C(F)(F)F (stereo unspecified) , please.
Output line: > 100 µM

###

- Test system: SF-295 CNS
- Assay: NCI tumour cell line growth inhibition, 48 h
Property Name: TGI (µM)
Write the answer as a number in µM, unit excluded.

Here are 2 compounds together with their reported answers.
{"Chemical String": "O=C1NC(=NCc2ccc(F)cc2)N/C1=C\\c1ccccc1Cl", "Units Text": "µM", "TGI": 35.8}
{"Chemical String": "O=C(Nc1n[nH]c2nc(-c3ccc(O)cc3)c(Br)cc12)C1CC1", "Units Text": "µM", "TGI": 14.8}

Now look at this entry.
Input line: Entry `CC(=O)[CH-]C(C)=O.CC(=O)[CH-]C(C)=O.[Cl-].[O]=[V]` has what TGI?
Output line: 44.8

###

- System: BT-549 breast
- Assay: NCI tumour cell line growth inhibition, 48 h
Property Name: TGI

Consider the reported TGI for these compounds:
{"Compound": "CC(=O)OCC1=CC2OC(=O)C3=COC(OC4OC(CO)C(O)C(O)C4O)C1C32 (stereo not given)", "TGI": "> 100 µM"}
{"Compound": "CN(CCNC(=O)c1nn(-c2ccc(Cl)cc2Cl)c2c1Cc1ccccc1-2)CCNC(=O)c1nn(-c2ccc(Cl)cc2Cl)c2c1Cc1ccccc1-2", "TGI": "38.2 µM"}
{"Compound": "CCOc1ccccc1Nc1ccc(N)cc1S(=O)(=O)O", "TGI": "> 100 µM"}
{"Compound": "CCOC(=O)[C@@]1(C(C)=O)CC(C)=C(C)C[S@]1=O", "TGI": "> 100 µM"}
{"Compound": "CN(C)/C=C/c1c2c(nc3ccccc13)C(=O)c1cccnc1C2=O", "TGI": "1.6 µM"}

Input line: Query: TGI; subject: CCN1C(=O)N(CC)C2C1NN=c1s/c(=C\c3ccc(C(F)(F)F)cc3)c(=O)n12 (stereo not given)
Output line: > 20.8 µM

Input line: Would you mind telling me what TGI value was observed for CCCCC(OC(=O)c1ccc(N)cc1)C(=O)Nc1nc(CC(=O)OCC)cs1 (stereo not given) ?
Output line: > 100 µM

Input line: Item `O=C(O)/C=C/c1ccc(OS(=O)(=O)O)cc1` has what recorded TGI?
Output line: > 100 µM

Input line: Would you kindly share the measured TGI for `Cc1ccc2nc(CN(CCO)CCO)cc(=O)n2c1` ?
Output line: > 100 µM

Input line: Quick one: TGI for COc1nc2ccc(CNc3ccc(C(=O)NC(CCC(=O)O)C(=O)O)cc3)cc2nc1OC (stereo not given) ?
Output line: > 100 µM
